Assay: Standard protocol for determination of kcat and KM (continuous spectrophotometric assay, Acetyl CoA hydrolysis at 235 nm)
Format: biochemical
Settings: purified protein; about 23° C.; pH 6.8; 0.2 mM acetyl CoA; glyphosate 0.125 to 10 mM
QUANTITY KIND: Km (µM)

molecule="SEQ ID NO: 425: GAT polypeptide (protein, 9_15H3, GAT polypeptide) MIEVKPINAEDTYEIRHRILRPNQPLEACMYETDMLRGAFHLGGYYRGKLISIASFHQAEHPELEGQKQYQLRGMATLEEYHEQKAGSTLIRHAEELLRKKGADLLWCNARTSASGYYKKLGFSEQGEVYNTPPVGPHILMYKKLT" quantity_kind=Km uom=µM meas_value=1900
molecule="SEQ ID NO: 344: GAT polypeptide (protein, 18D6, GAT polypeptide) MIEVKPINAEDTYEIRHRILRPNQPLEACKYETDLLGGTFHLGGYYRGKLISIASFHKAEHSELEGQKQYQLRGMATLEGYREQKAGSTLIRHAEELLRKKGADLLWCNARTSASGYYEKLGFSEQGEVYDIPPIGPHILMYKKLA" quantity_kind=Km uom=µM meas_value=1200
molecule="SEQ ID NO: 408: GAT polypeptide (protein, 6_5F11, GAT polypeptide) MIEVKPINAEDTYEIRHRILRPNQPLEACMYETDLLGGTFHLGGYYRGKLISIASFHQAEHPELEGQKQYQLRGMATLEEYREQKAGSTLIRHAEELLRKKGADLLWCNARTSASGYYKKLGFSEQGEVHDIPPVGPHILMYKKLT" quantity_kind=Km uom=µM meas_value=1900
